meta.source: the supplement of paper PMC5998384

Entries and their measured thermal stability score follow.
Test system: HeLa Kyoto
assay: thermal stability score vs G1/S (z-score of summed log2 fold changes over temperatures); higher = more thermally stable than in G1/S
applied_conditions: cell cycle stage: mitosis
Answer with a number only.

{"columns": ["sequence_chain", "target_system", "recorded_metric", "readout_number"],
 "data": [
  ["MGARASGGPLARAGLLLLLLLLLLLGLLAPGAQGARGRGGAEKNSYRRTVNTFSQSVSSLFGEDNVRAAQKFLARLTERFVLGVDMFVETLWKVWTELLDVLGLDVSNLSQYFSPASVSSSPARALLLVGVVLLAYWFLSLTLGFTFSVLHVVFGRFFWIVRVVLFSMSCVYILHKYEGEPENAVLPLCFVVAVYFMTGPMGFYWRSSPSGPSNPSNPSVEEKLEHLEKQVRLLNIRLNRVLESLDRSKDK [BRI3BP]", "HeLa Kyoto", "thermal stability score", -3.07],
  ["MSELPGDVRAFLREHPSLRLQTDARKVRCILTGHELPCRLPELQVYTRGKKYQRLVRASPAFDYAEFEPHIVPSTKNPHQLFCKLTLRHINKCPEHVLRHTQGRRYQRALCKYEECQKQGVEYVPACLVHRRRRREDQMDGDGPRPREAFWEPTSSDEGGAASDDSMTDLYPPELFTRKDLGSTEDGDGTDDFLTDKEDEKAKPPREKATDEGRRETTVYRGLVQKRGKKQLGSLKKKFKSHHRKPKSFSSCKQPG [SURF2]", "HeLa Kyoto", "thermal stability score", 0.703],
  ["MVLLKEYRVILPVSVDEYQVGQLYSVAEASKNETGGGEGVEVLVNEPYEKDGEKGQYTHKIYHLQSKVPTFVRMLAPEGALNIHEKAWNAYPYCRTVITNEYMKEDFLIKIETWHKPDLGTQENVHKLEPEAWKHVEAVYIDIADRSQVLSKDYKAEEDPAKFKSIKTGRGPLGPNWKQELVNQKDCPYMCAYKLVTVKFKWWGLQNKVENFIHKQERRLFTNFHRQLFCWLDKWVDLTMDDIRRMEEETKRQLDEMRQKDPVKGMTADD [PITPNA]", "HeLa Kyoto", "thermal stability score", -1.48]
]}

Please look at the following sequence next.
-- ask What value of measured thermal stability score is listed for MAAPAPGLISVFSSSQELGAALAQLVAQRAACCLAGARARFALGLSGGSLVSMLARELPAAVAPAGPASLARWTLGFCDERLVPFDHAESTYGLYRTHLLSRLPIPESQVITINPELPVEEAAEDYAKKLRQAFQGDSIPVFDLLILGVGPDGHTCSLFPDHPLLQEREKIVAPISDSPKPPPQRVTLTLPVLNAARTVIFVATGEGKAAVLKRILEDQEENPLPAALVQPHTGKLCWFLDEAAARLLTVPFEKHSTL [PGLS] ?
-- reply -2.63

---

Test system: HeLa Kyoto;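 also: synchronized HeLa Kyoto cells, proteins quantified by TMT10plex mass spectrometry, three biological replicates, mitosis taken 0.5 h after nocodazole release, G1/S directly after double thymidine block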
assay: thermal stability score vs G1/S (z-score of summed log2 fold changes over temperatures); higher = more thermally stable than in G1/S
applied_conditions: cell cycle stage: early G1 (4.5 h after nocodazole release)
recorded_metric: thermal stability score
Answer with a number only.

-- ask What value of measured thermal stability score is listed for MAPWTLWRCCQRVVGWVPVLFITFVVVWSYYAYVVELCVFTIFGNEENGKTVVYLVAFHLFFVMFVWSYWMTIFTSPASPSKEFYLSNSEKERYEKEFSQERQQEILRRAARALPIYTTSASKTIRYCEKCQLIKPDRAHHCSACDSCILKMDHHCPWVNNCVGFSNYKFFLLFLLYSLLYCLFVAATVLEYFIKFWTNELTDTRAKFHVLFLFFVSAMFFISVLSLFSYHCWLVGKNRTTIESFRAPTFSYGPDGNGFSLGCSKNWRQVFGDEKKYWLLPIFSSLGDGCSFPTRLVGMDPEQASVTNQNEYARSSGSNQPFPIKPLSESKNRLLDSESQWLENGAEEGIVKSGTNNHVTVAIEN [ZDHHC20] ?
-- reply -0.885
